Tested on: BDF1 mice, P388 leukemia ip, median survival T/C
Test: NCI In Vivo Anticancer Drug Screen. Data for tumor model P388 Leukemia (intraperitoneal) in B6D2F1 (BDF1) mice
Details: endpoint: median survival time; dose: 100.0 mg/kg/injection; schedule: Q01DX009 (ip); vehicle: saline with Tween-80
Inconclusive results and toxic doses are left out. How the source made its calls: active means survival T/C of 150% or more; inactive means T/C below 125% in these data.
Possible outcomes: active, inactive

In [3]: df
Out[3]:
                                    compound  label_class
 0    CC(=O)N(C)c1ccc(/C=C2\C=Cc3ccccc32)cc1     inactive
 1       O=C(NNc1ccccc1)C12CC3CC(CC(C3)C1)C2     inactive
 2  O=[N+]([O-])c1cccc(/C=C/c2cc(N(CCO)CCO)c3ccccc3n2)c1     inactive
 3         c1ccc2cc3c(cc2c1)Cn1c-3nc2ccccc21     inactive
 4               O=C(O)Cc1c[nH]c2cccc(Cl)c12     inactive
 5          Cc1[o+]c(C)c2c(c1C)-c1ccccc1C2=O     inactive
 6                           Cc1c[se]c(=S)s1     inactive
 7  CCCCCCC(=O)CC(SCC)c1ccc(Cl)cc1 (stereo not given)     inactive
 8                         Nc1[nH]nc2nccnc12     inactive
 9            COc1cc(/C=N/NC(N)=S)cc(OC)c1OC     inactive
10  c1ccc2c3c(ccc2c1)OCCOCCOc1ccc2ccccc2c1-3     inactive
11  O=C(CC(NC(=O)OCc1ccccc1)C(=O)OCc1ccccc1)OCc1ccccc1 (stereo not given)     inactive
12     O=C(/C=C/c1ccc(OCc2ccccc2)cc1)c1cccs1     inactive
13  CC(C)(C)c1cc(C(C)(C)c2ccccc2)cc(Cc2cc(C(C)(C)c3ccccc3)cc(C(C)(C)C)c2O)c1O     inactive
14  CCS(=O)(=O)OC1CCCCCCC1NC(=O)c1ccccc1 (stereo not given)     inactive
15   O=C(/C=C/c1ccc(OCc2ccccc2)cc1)c1ccccc1F     inactive
16                O=c1[nH]nc(NCCCO)c2ccccc12     inactive
17           COc1ccc(-c2noc(=O)c3ccccc23)cc1     inactive
18           Cc1ccc(C)c(-n2nnc3ccccc3c2=O)c1     inactive
19  CC(C)CC1NC(=O)C(Cc2ccc(OCc3ccccc3)cc2)NC1=O (stereo not given)     inactive
20  Cc1ccc(-c2nc3ccccc3c(=O)n2/N=C/c2cccc3ccccc23)cc1     inactive
21  CC1(c2ccco2)C(=O)NC(=O)N1C(=O)CCl (stereo not given)     inactive
22  O=[N+]([O-])c1cc(-c2nc3ccccc3[nH]2)cc([N+](=O)[O-])c1     inactive
23  COc1ccc(C2NC(=S)NC3=C2CCCC3)cc1 (stereo not given)     inactive
24  O=C1NC(c2cccc3c2OCO3)N=C2Oc3ccccc3C=C12 (stereo not given)     inactive
25             CCOC(=O)CCC(C(=O)OCC)C(=O)OCC     inactive
26  c1ccc(N=N/C(=N\Nc2ccccc2)SCCS/C(N=Nc2ccccc2)=N/Nc2ccccc2)cc1     inactive
27                  Cn1cnc([N+](=O)[O-])c1Cl     inactive
28  CCC(C)SC1=NC=NC2=NC=NC21 (stereo not given)     inactive
29                  Cc1ccc(N2C(=O)CSC2=S)cc1     inactive
30             CC(=O)Nc1cccc([N+](=O)[O-])c1     inactive
31  CC(=O)OCC(COC(C)=O)=C1N=C(c2ccccc2)OC1=O     inactive
32  Oc1ccccc1-c1nnc2n1N=C(c1ccc(-c3ccccc3)cc1)CS2     inactive
33  O=C(O)C1C(C(=O)O)N2C(c3ccccc3)C(C(=O)O)C(C(=O)O)N2C1c1ccccc1 (stereo not given)     inactive
34                     N=C1SCc2ccc3ccccc3c21     inactive
35                      O=Cc1ccc(C=O)c(Cl)c1     inactive
36  CCSC(=O)N1c2ccc(OC)cc2C=CC1C#N (stereo not given)       active
37  CCC(=O)c1ccc(OCC(O)CN2CCC(O)(c3ccccc3)CC2)cc1 (stereo not given)     inactive
38         CCCC(=O)Nc1ccc([N+](=O)[O-])cc1OC     inactive
39  CCN(CC)CCNc1ccc(C)c2sc3ccc(O)cc3c(=O)c12     inactive
40  CC(C)NC(=O)c1ccccc1S(=O)c1ccccc1C(=O)NC(C)C     inactive
41  O=C1c2c(Cl)cccc2C(c2ccccc2)c2cccc(Cl)c21     inactive
42               N#Cc1cc([N+](=O)[O-])ccc1Cl     inactive
43  CS(=O)(=O)N(c1ccccc1[N+](=O)[O-])S(C)(=O)=O     inactive
44                                  Nc1cccs1     inactive
45  COc1ccc(C(=O)/C=C/c2ccc(OCc3ccccc3)cc2)c(OC)c1     inactive
46    COc1cc(/C=N\NC(=O)OC(C)(C)C)cc(OC)c1OC     inactive
47  O=C1c2ccccc2C(=O)N1OC1CCCCO1 (stereo not given)     inactive
48                 O=C(Nc1ccc(F)cc1)C(F)(F)F     inactive
49                 O=c1[nH]cnc2nc(Br)[nH]c12     inactive

###

Test system: BDF1 mice, P388 leukemia ip, median survival T/C
Assay: NCI In Vivo Anticancer Drug Screen. Data for tumor model P388 Leukemia (intraperitoneal) in B6D2F1 (BDF1) mice
Conditions: endpoint: median survival time; dose: 100.0 mg/kg/injection; schedule: Q01DX009 (ip); vehicle: Klucel (hydroxypropylcellulose) (HPC); higher = longer survival
Inconclusive results and toxic doses are left out.

COMPOUND	T/C
COc1cc(/C=C(/C)[N+](=O)[O-])ccc1O	114 % of control
CN(C)c1ccc(C(=O)c2ccccc2)cc1	95 % of control
C/C(=N\N=C(/C)c1ccc(Cl)cc1)c1ccc(Cl)cc1	95 % of control
CN(C)c1ccc(/C=C\C(=O)c2ccccc2)cc1	100 % of control
O=C(O)C(Cc1ccc(O)cc1)c1ccccc1 (stereo not given)	86 % of control
O=C1c2ccccc2-c2ccc(Br)c3cccc1c23	100 % of control
COC(=O)[C@@H]1[C@H](O)[C@H](C)[C@H](O)[C@H](C)/C=C\C=C(C)C(=O)Nc2c(C)c(OC(C)=O)c3c(c2O)C(=O)C(C)=C2OCOC(=C23)C(C)=C[C@@](C)(O)[C@H](O)[C@@H](C)[C@H]1OC(C)=O	106 % of control
CCCn1cnc2c(SCc3ccccc3Cl)nc(N)nc21	90 % of control
BrC1C2CCC(CC2)C1Br (stereo not given)	100 % of control
CCCCCCCCCCCCCCCC(=O)OCc1cc(=O)c(O)co1	118 % of control

###

Test system: BDF1 mice, P388 leukemia ip, median survival T/C
Test: NCI In Vivo Anticancer Drug Screen. Data for tumor model P388 Leukemia (intraperitoneal) in B6D2F1 (BDF1) mice
Details: endpoint: median survival time; dose: 100.0 mg/kg/injection; schedule: Q01DX009 (ip); vehicle: saline with Tween-80
Inconclusive results and toxic doses are left out. How the source made its calls: active means survival T/C of 150% or more; inactive means T/C below 125% in these data.
Possible outcomes: active, inactive

>>> df
                                    compound  label_class
 0        O=c1n(CCCl)c(=O)n(CCCl)c(=O)n1CCCl     inactive
 1  Cc1cc(NC(=O)Nc2ccc(C3=NCCN3)cc2)ccc1NC(=O)Nc1ccc(C2=NCCN2)cc1     inactive
 2  CCCCN(CCCC)CCNc1ccc(Cl)c2oc3cc(C)ccc3c(=O)c12     inactive
 3                                  CCSCCSCC     inactive
 4            O=CN(SSN(C=O)C1CCCCC1)C1CCCCC1     inactive
 5  CCCCCC(CN(C)C)C(=O)/C=C/c1cccc(O)c1 (centres undefined)     inactive
 6            CCOC(=O)C(C)(C(=O)OCC)c1ccccc1     inactive
 7           COC(=O)/C=C1\Sc2ccc(Cl)cc2NC1=O     inactive
 8  [Cl][Pt+2]([Cl])([Cl])[Cl].[Na+].[S-]c1ncnc2nc[nH]c12.[S-]c1ncnc2nc[nH]c12     inactive
 9  CC(C(=O)c1cc(O)c(O)cc1C(O)(C(F)(F)F)C(F)(F)F)C(O)(C(F)(F)F)C(F)(F)F (centres undefined)     inactive
10              C(=C/c1ccnc2ccccc12)/c1cccs1     inactive
11         C(=C\c1ccccc1)/CSc1ncnc2nc[nH]c12     inactive
12      CN(C)c1ccc(/C=C\c2ccnc3ccccc23)cc1Br     inactive
13                        S=c1[nH]nc2ccccn12     inactive
14  O=[N+]([O-])c1ccc(NS(=O)(=O)c2cc(Cl)ccc2Cl)c([N+](=O)[O-])c1     inactive
15  O=C(O)C1C2CC1C(Cl)C2Cl (centres undefined)     inactive
16  CCC1(C)CCC2=C(CCC3C(C)(C(=O)O)CCCC23C)C1 (centres undefined)     inactive
17  COc1ccc(/C=C/c2c[n+]([O-])ccc2[N+](=O)[O-])cc1     inactive
18          Cn1c(=O)[nH]cc([N+](=O)[O-])c1=O     inactive
19                              O=C1C=CCCCC1     inactive
20  CCCCCCCCCCCCCCCC(=O)N(c1ccc(N)cc1)C(C)CCCN(CC)CC (centres undefined)     inactive
21     O=C(O)c1ccc(-c2ccc(C(=O)O)cc2I)c(I)c1     inactive
22  COC(=O)C1=C(C)N[C@@]2(C)[C@H](C(=O)OC)C[C@H]1C2(C(C)=O)C(C)=O     inactive
23  N=c1ccn2c(n1)OC1C(O)C(COS(=O)OC3C(CO)OC4C3Oc3nc(=N)ccn34)OC12 (centres undefined)       active
